Test system: 845751-090-R-J2-PDC tumor spheroid viability;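 also: spheroids exposed to compounds for 7 days before readout; CTG3D luminescence normalised so that 100% = DMSO vehicle control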
Assay: Anticancer human tumor 845751-090-R-J2-PDC patient-derived head and neck squamous carcinoma cell line growth inhibition [IpAb]
Settings: second compound 0.316 µM; first compound 10 µM; active compounds read low; spheroids with HUVEC and MSC
RESULT_TYPE: viability, T/C (%)
Write it as a number; the unit % goes unstated.

Req: 845751-090-R-J2-PDC tumor spheroid viability / viability, T/C / Cn1ncc(Cl)c1-c1cc(C(=O)NC(CN)Cc2cccc(F)c2)sc1Cl (stereo not given) + CC(C)NCC(C(=O)N1CCN(c2ncnc3c2C(C)CC3O)CC1)c1ccc(Cl)cc1 : value?
Resp: 0.51

Req: Param item: CC1(C)CCC(CN2CCN(c3ccc(C(=O)NS(=O)(=O)c4ccc(NCC5CCOCC5)c([N+](=O)[O-])c4)c(Oc4cnc5[nH]ccc5c4)c3)CC2)=C(c2ccc(Cl)cc2)C1 + CCN1CCN(Cc2ccc(Nc3ncc(F)c(-c4cc(F)c5nc(C)n(C(C)C)c5c4)n3)nc2)CC1
Resp: 21.6

Req: Would you mind doing CCCS(=O)(=O)Nc1ccc(F)c(C(=O)c2c[nH]c3ncc(-c4ccc(Cl)cc4)cc23)c1F + CCN1CCN(Cc2ccc(Nc3ncc(F)c(-c4cc(F)c5nc(C)n(C(C)C)c5c4)n3)nc2)CC1 as well?
Resp: 23

Req: Check Cc1nc(NC(=O)N2CCCC2C(N)=O)sc1-c1ccnc(C(C)(C)C(F)(F)F)c1 (stereo not given) + CC(C)NCC(C(=O)N1CCN(c2ncnc3c2C(C)CC3O)CC1)c1ccc(Cl)cc1 too.
Resp: 7.03

Req: Queued: Cn1nccc1Nc1nccc(-c2ccn(C(CO)c3ccc(Cl)c(F)c3)c(=O)c2)n1 (stereo not given) + CC(C)NCC(C(=O)N1CCN(c2ncnc3c2C(C)CC3O)CC1)c1ccc(Cl)cc1
Resp: 17.1
